Items are presented alongside their recorded apparent Kd.
# Tested on: MS2 coat protein
# procedure-text: apparent Kd, MS2 coat protein; higher = weaker binding; RNA-MaP array; FMN 200 µM where present
# details: ligand present: flavin mononucleotide; designed as: ON switch for flavin mononucleotide
Give the value, in units of nM, as a plain number.

Some solved cases for reference:
{"sequence": "AGUUUAUAUCGAGGAUAUAAGUCUAGGACAUGAGGAUCACCCAUGUAUGUCUUAGAAGGCGAUAUAAACAGCCUGUUACAGGCA", "apparent Kd [nM]": 7.04}
{"sequence": "GCGUAAUAGGUGUAGCUAGUCGUGCAAGAAGGGUGGUGAACAUGAGGAUCACCCAUGUGGUCAAUACAGGAUAUUGCUAUACGC", "apparent Kd [nM]": 139}
{"sequence": "GGUCGUCACAUGAACAUGAGGAUCACCCAUGUAAAUUCUCAUGAGGAUAUGGAUCCUAAUUGGAUCCAGAAGGCGUGGACGACC", "apparent Kd [nM]": 457}

Proceeding to the next sequence to report its apparent Kd.
The sequence CUGAUUAUACAAGGAUAUCUUUUGUUGUUUCGACUUACAUGAGGAUCACCCAUGUUAAUAUUUUUAGAGAAGGUGUAUUUUCAG showed apparent Kd equal to 20.3

----------
The entries below come with measured apparent Kd values attached.
# System: MS2 coat protein
# procedure-text: apparent Kd, MS2 coat protein; higher = weaker binding; RNA-MaP array
# details: ligand present: flavin mononucleotide; designed as: OFF switch for flavin mononucleotide
API: value field is a number in nM; no unit string.

Reference set (4 entries):
{"sequence": "CGGCGCUUAGGAUAUUAGAGAUGCAACAUGAGGAUCACCCAUGUGAUGAGGGUUGGCAGCUAAGAAGGAAGCAUCC", "apparent Kd [nM]": 61.5}
{"sequence": "CCAUGUAAUGUAAGGAUAUUCCAGGUAAUUACUUUGAAGAAGGUACAUGAGGAUCACCCAUGUGGAAACGAAUG", "apparent Kd [nM]": 64.5}
{"sequence": "GACCAUCACCAGAAGGUCCUCCACCAGCGAGAUCCGACAUGAGGAUCACCCAUGUACUGUGGAUGGAAGGAUAUGGAAGGCUCU", "apparent Kd [nM]": 116}
{"sequence": "UAUAAGGAAGGAUAUAGGCUGCAAAACAUGAGGAUCACCCAUGUGAACCGACGACGCCAACUAGAAGGUCCCUAUG", "apparent Kd [nM]": 12.9}

Lookup result for ACAAGGAGUCAAGGAUAUGAUAGAAGUUACACAUGAGGAUCACCCAUGUUUCUCCGGUGUCAGAAUCAGAAGGUGAGUAUGCAU ; measured apparent Kd: 74.7

Sure, the documented apparent Kd for CAAAUGUGCACUCGUGAUACAUGAGGAUCACCCAUGUCAACUAAGGAUAUCUGGAAGUCACAUCGAGAGAAGGUAGCGUACCCU is 9.44

Briefly, apparent Kd measured for GCAAUUCUUGAGAAGGUCGUAGUGCGCAGACCAAAAGCACAUGAGGAUCACCCAUGUGAUCAAACGAAGGAUAUCACAGUAGAA : 49.3

----------
Some sequences, each annotated with its measured apparent Kd.
# Test system: MS2 coat protein
# procedure-text: apparent Kd, MS2 coat protein; higher = weaker binding; RNA-MaP array
# details: ligand present: flavin mononucleotide; designed as: OFF switch for flavin mononucleotide
The reply should be a number in nM, with the unit left off.

{"sequence": "UCGACAUCAGGAUAUACGAUGGAGUAGUUACGAGUAUCACGACAUGAGGAUCACCCAUGUAGAAGGGAUCGUCC", "experimental-system": "MS2 coat protein", "metric": "apparent Kd", "value-observed": 17.7}

Kindly note the recorded apparent Kd for GACAAAAUGGUAGGAUAUGCUUGGUCUUGAUCAGCAGAAGGACCACAUGAGGAUCACCCAUGUGCAGUGAUUCUGGGAGCUCGC , which is 93.3

Kindly note the recorded apparent Kd for AGAUUCUCUGAAGGAUAUCGCGUUUAUUUCGAGCGAGAAGGUCAAUUAUGGGAGAUGCACAUGAGGAUCACCCAUGUUCGAAAA , which is 119

sequence CGGUGACAUGAGGAUCACCCAUGUAAGGAUAUACCGGUUGAAGAUAAUAGCGACGGCGGAAGAAGGUACCUACA , apparent Kd observed: 25.9

// apparent Kd value for GAAAGGUGAGGAUAUACAUGAGGAUCACCCAUGUGUAGAAAUAGAAAGAAAAUCUCAAGUAGAAGGCACAAACA : 13.7

Entry UGGGUUACCUCAGGAUAUCGCCUUGUACAUGAGGAUCACCCAUGUAGUAUCGGCCGUGUGUGCAUCGAGAAGGGAGUAACCUUC , apparent Kd reported as 53.5

apparent Kd reading for GAUUAAAAGAUAGGAUAUUUUGAAAUCGUCACAUGAGGAUCACCCAUGUAUGGCCUGGGCAAUCAAAAGAAGGAUCUUUCUGAU : 6.84

According to the records, this sequence GGUCCAAUAGGAUAUACAUGAGGAUCACCCAUGUAAUGGAAGCUCGGGUUUUGGUACUGUAGAAGGAUUGGGAC displays apparent Kd of 40.9

Per the record, GCCCUGUGACUAGGAUAUGCCGGGAAACACAUCGCAGAAGGAGUCCACUCAUGUCGACAUGAGGAUCACCCAUGUACCAGGGUU has apparent Kd of 29.9
